B1: CPEB3 Ribozyme (parent)
chain: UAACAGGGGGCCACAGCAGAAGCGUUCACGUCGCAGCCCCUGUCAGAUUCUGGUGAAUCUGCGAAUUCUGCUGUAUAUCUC

Variants of: B1
Assay: self-cleavage, relative activity (ratio to wild type); higher = more cleavage; in vitro, sequencing
Please assign a class to every record based on measured self-cleavage, with ranges zone 1 = under 0.3, zone 2 = from 0.3 up to 0.4, zone 3 = 0.4 and over

The entry to classify is G30C G33U ; which class holds it?
zone 1

What about this variant? A21U U54A
zone 1

What about this variant? G9C A15C
zone 2

What about this variant? A18U G53A
zone 3

What about this variant? U54A U76C
zone 3

Others:
The entry to classify is A65C U66C ; which class holds it?
zone 1

What about this variant? G19U A77U
zone 1

What about this variant? G6A C37U
zone 1

What about this variant? U1A A77G
zone 3

What about this variant? A45C A65G
zone 3

What about this variant? G9C U74C
zone 1

What about this variant? G22A U67C
zone 1

What about this variant? G8A U48G
zone 2

What about this variant? G22U C71U
zone 1

What about this variant? U51A G70A
zone 3

What about this variant? A28U C38U
zone 3

What about this variant? U48A A56C
zone 1

What about this variant? C37U U48C
zone 2

What about this variant? A56U U74C
zone 3

What about this variant? U69G C81A
zone 3
